System: SNB-75 CNS
Assay: NCI tumour cell line growth inhibition, 48 h; in the data active = GI50 below about 0.43 µM; inactive = the rest
Give one outcome, nothing more. List: y for active, n for inactive

Examples from the recorded data:
>>> qualitativelabel("Clc1cccc(Cc2cn3cc(-c4ccccc4)nc3s2)c1")
"n"
>>> qualitativelabel("N=C(N)c1ccc(-c2ccc(-c3cc(Cl)cc(Cl)c3)s2)nc1")
"n"
>>> qualitativelabel("CCOCC[P+](c1ccccc1)(c1ccccc1)c1ccccc1")
"n"
>>> qualitativelabel("N=C(N)c1ccc(-c2ccc(-c3ccco3)o2)cc1F")
"n"
>>> qualitativelabel("C(#Cc1ccccc1C#Cc1ccccn1)c1ccc(OCCCCCCOc2ccc(C#Cc3ccccc3C#Cc3ccccn3)cc2)cc1")
"n"
>>> qualitativelabel("COc1ccc2c(c1)c(=O)oc1cc(OC/C(=N\\O)c3ccc(F)cc3)ccc12")
"n"
>>> qualitativelabel("CSc1ccc2c(c1)C(=O)c1c-2n(CCCN=[N+]=[N-])c(=O)c2cc([N+](=O)[O-])ccc12")
"n"
>>> qualitativelabel("COc1ccc2cc(C(=O)/C=C/c3ccccc3OC)ccc2c1")
"n"

Prompt: What call does the record list for CN(C)CCOc1cccc(NC2=C(Cl)C(=O)C(Nc3cccc(OCCN(C)C)c3)=C(Cl)C2=O)c1 ?
Completion: n

Prompt: What call does the record list for O=CNc1ccc2c(c1)Cc1cc([N+](=O)[O-])ccc1-2 ?
Completion: n

Prompt: What call does the record list for COc1ccc(/C=C2\CCCC3=C2N=C2SC=NN2C3c2ccc(OC)c(OC)c2)cc1OC (centres undefined) ?
Completion: n

Prompt: What call does the record list for O=C(Nc1cccc2ccccc12)c1cc2ccccc2cc1O ?
Completion: n

Prompt: What call does the record list for O=C(O)c1cn(C2CC2)c2cc(N3CCN(C(=O)Nc4nc(-c5ccc(Cl)cc5)cs4)CC3)c(F)cc2c1=O ?
Completion: n

Prompt: What call does the record list for C#Cc1ccc(-n2c(/C=C/c3ccc4ccccc4n3)nc3ncccc3c2=O)cc1 ?
Completion: y

###

Test system: SK-OV-3 ovarian
Test: NCI tumour cell line growth inhibition, 48 h
valueKind: TGI

Sample answers from the record:
>>> valueobserved("COc1ccc(C2Oc3c(cccc3OC)C=C2[N+](=O)[O-])cc1 (centres undefined)")
"15.3 µM"
>>> valueobserved("COc1ccc2c(c1)c(=O)oc1cc(OC/C(=N\\O)c3ccc(F)cc3)ccc12")
"> 100 µM"
>>> valueobserved("COc1cc(CNC(=O)CCCCCCCCCCSSCCCCCCCCCCC(=O)NCc2ccc(O)c(OC)c2)ccc1O")
"> 10 µM"
>>> valueobserved("CC(=O)OCC(OC(C)=O)C(OC(C)=O)C(OC(C)=O)C(/C=N\\Nc1nc2ccccc2c(=O)[nH]1)OC(C)=O (centres undefined)")
"> 100 µM"
>>> valueobserved("CC1(C)CC[C@]2(C(=O)O)CC[C@]3(C)C(=CC[C@@H]4[C@@]5(C)CC[C@@H]6OC(C)(C)OC[C@@]6(C)[C@@H]5CC[C@]43C)[C@H]2C1")
"91.8 µM"
>>> valueobserved("CCN(CC)CCCC(C)Nc1ccnc2cc(Cl)c(SCc3ccccc3)cc12 (centres undefined)")
"3.69 µM"
>>> valueobserved("O=C(CCc1cc(-c2ccco2)n(-c2ccc([N+](=O)[O-])cc2[N+](=O)[O-])n1)Nc1ccccc1")
"> 100 µM"
>>> valueobserved("Clc1ccc(CCn2cncn2)c(Cl)c1")
"> 100 µM"
>>> valueobserved("NS(=O)(=O)c1ccc(NCc2cnc3ccccc3c2)cc1")
"> 100 µM"
>>> valueobserved("Cc1cc(Cl)ccc1Nc1nc(C(F)(F)F)ccc1C(=O)N/N=C/c1c(Cl)cccc1Cl")
"3.29 µM"

Report TGI for each item below.
1. COc1cc2c(/C=C3/C(=O)Nc4c3ccc3ccccc43)c(Cl)[nH]c2cc1C
2. COc1ccc2c(c1)N(CCO)C1=C(C(=O)OC1)C2c1cccc(Br)c1 (centres undefined)
3. N#C/C(N)=C(\C#N)N=CNc1ccccc1N
4. O=C(O)C#Cc1ccc([N+](=O)[O-])cc1
5. O=C1/C(=C/c2cccc3ccccc23)Cc2ccccc21
6. O=C(Nc1cccc2ccccc12)c1cc2ccccc2cc1O
7. O=CN/C=C/c1ccccc1O
8. COc1cc2c3c(n(CCCN4CCOCC4)c(=O)c2cc1OC)-c1cc2c(cc1C3=O)OCO2

Completion:
1. > 50 µM
2. 19 µM
3. > 100 µM
4. > 100 µM
5. 47.2 µM
6. 7.55 µM
7. > 100 µM
8. > 100 µM

Report TGI for each item below.
1. N=c1c2c(=O)n3c(nc2nc2sc4ccc(Cl)cc4n12)-c1ccccc1Sc1ccccc1-3
2. O=C(Nc1cc(Cl)cc(Cl)c1)c1ccc(NC2=C(Cl)C(=O)N(Cc3ccccc3)C2=O)cc1
3. C=C1CCC2C(C)(CO)C(O)CCC2(C)C1CC(O)C1=CCOC1=O (centres undefined)
4. [O-][N+]1=C(c2ccccc2)COc2ccccc21
5. CO[C@H]1C[C@H](O[C@H]2CC[C@]3(C=O)[C@H]4CC[C@]5(C)[C@@H](C6=CC(=O)OC6)CC[C@]5(O)[C@@H]4CC[C@]3(O)C2)O[C@H](C)[C@H]1O[C@@H]1O[C@H](CO[C@@H]2O[C@H](CO)[C@@H](O)[C@H](O)[C@H]2O)[C@@H](O)[C@H](O)[C@H]1O

Completion:
1: 25.2 µM; 2: 73.7 µM; 3: > 100 µM; 4: > 100 µM; 5: 0.21 µM

###

Test system: SF-295 CNS
Test: NCI tumour cell line growth inhibition, 48 h; in the data active = GI50 below about 0.43 µM; inactive = the rest
Give one outcome, nothing more. List: active, inactive

Examples from the recorded data:
>>> qualitativelabel("C[C@H]1[C@H](C)CC[C@]2(C(=O)O)CC[C@]3(C)C(=CC[C@@H]4[C@@]5(C)CC[C@H](OC(=O)/C=C\\c6ccc(O)cc6)C(C)(C)[C@@H]5CC[C@]43C)[C@H]12")
"inactive"
>>> qualitativelabel("O=C(Nc1cccc(-n2cc(-c3ccncc3)c(-c3ccc(O)c(Cl)c3)n2)c1)Nc1ccc(Cl)c(C(F)(F)F)c1")
"inactive"
>>> qualitativelabel("COc1cc2c(/C=C3/C(=O)Nc4c3ccc3ccccc43)c(Cl)[nH]c2cc1C")
"active"
>>> qualitativelabel("CC1=C(C(=O)Nc2ccc(Cl)c(Cl)c2)C(c2cccc(O)c2)NC(=S)N1 (centres undefined)")
"inactive"
>>> qualitativelabel("O=C(O)c1cn(C2CC2)c2cc(N3CCN(C(=O)Nc4nc(-c5ccc(Cl)cc5)cs4)CC3)c(F)cc2c1=O")
"inactive"

Prompt: What call does the record list for COc1cc2c3c(n(CCCN4CCOCC4)c(=O)c2cc1OC)-c1cc2c(cc1C3=O)OCO2 ?
Completion: active

Prompt: What call does the record list for CCCNNC(=O)c1ccc(CNC(=O)/C=C/c2ccccc2)cc1 ?
Completion: active

Prompt: What call does the record list for COc1ccc2oc(-c3ccc(Cl)cc3)c(N3CCN(C)CC3)c2c1 ?
Completion: inactive

Prompt: What call does the record list for COC(=O)C12OCC34C(CC5C(C)=CC(=O)C(O)C5(C)C3C(O)C1O)OC(=O)C(OC(=O)CC(C)C)C24 (centres undefined) ?
Completion: active

Prompt: What call does the record list for COc1ccc(/C=C/C(=O)c2ccc(NC(=O)CSc3nnc(-c4cc(OC)c(OC)c(OC)c4)o3)cc2)cc1 ?
Completion: inactive

Prompt: What call does the record list for Cc1ccc(C2CC(c3cccc(Nc4ccncc4)c3)=NN2c2ccc(Cl)cc2)cc1 (centres undefined) ?
Completion: inactive

Prompt: What call does the record list for CSc1ccc2c(c1)C(=O)c1c-2n(CCCN=[N+]=[N-])c(=O)c2cc([N+](=O)[O-])ccc12 ?
Completion: inactive

Prompt: What call does the record list for O=C1C=CC(=O)N1CCCCCCCCCCN1C(=O)C=CC1=O ?
Completion: inactive

Prompt: What call does the record list for Cc1cc(Cl)ccc1Nc1nc(C(F)(F)F)ccc1C(=O)N/N=C/c1ccc(F)cc1 ?
Completion: inactive

###

System: IGROV1 ovarian
Assay: NCI tumour cell line growth inhibition, 48 h
valueKind: TGI (µM)
Answers are plain numbers, in µM.

Sample answers from the record:
>>> valueobserved("CCNCCNc1cc(C2CCCC2)c(C#N)c2nc3ccccc3n12")
16
>>> valueobserved("CO[C@H]1C[C@H](O[C@H]2CC[C@]3(C=O)[C@H]4CC[C@]5(C)[C@@H](C6=CC(=O)OC6)CC[C@]5(O)[C@@H]4CC[C@]3(O)C2)O[C@H](C)[C@H]1O[C@@H]1O[C@H](CO[C@@H]2O[C@H](CO)[C@@H](O)[C@H](O)[C@H]2O)[C@@H](O)[C@H](O)[C@H]1O")
0.825

Report TGI for each item below.
1. COc1ccc2c(c1)N(CCC1CCCCN1C)c1ccccc1S2 (stereo not given)
2. N=C(N)c1ccc(-c2ccc(-c3ccco3)o2)cc1F

Completion:
1: 26.5; 2: 6.02
